// data source = the OligoGym collection

Listed below: sensor-assay potency score (higher = more potent) values for each entry.
SYSTEM_UNDER_TEST: SNRNP200
PROTOCOL: pooled miR-30 sensor sort-seq; sequence = guide strand
STUDY_CONDITIONS: shRNA

Reference set, count: 7
Qu. Determine its reported sensor-assay potency score (higher = more potent): TGTAATGAGGTGCTCGTCCTGG
Ans. -0.352

Qu. Determine its reported sensor-assay potency score (higher = more potent): TTTCATTCTTTAGAACAGCTAG
Ans. 0.0872

Qu. Determine its reported sensor-assay potency score (higher = more potent): TACAGTGTTAAACACCTGGGTC
Ans. -1.05

Qu. Determine its reported sensor-assay potency score (higher = more potent): TTGTTCTCAATGGTCTTGGTGA
Ans. -0.0384

Qu. Determine its reported sensor-assay potency score (higher = more potent): TTCTTGAAGAAATCCTTCTTGG
Ans. -0.674

Qu. Determine its reported sensor-assay potency score (higher = more potent): AATATCGCTCGCATCAACCGGC
Ans. 0.041

Qu. Determine its reported sensor-assay potency score (higher = more potent): TATCTTGGTAAAGACTCTCAAA
Ans. -1.23

Next:
Qu. Determine its reported sensor-assay potency score (higher = more potent): TTGCAGAAGAACGTTGATCTTA
Ans. -0.0878

---

SYSTEM_UNDER_TEST: DCST1
PROTOCOL: pooled miR-30 sensor sort-seq; sequence = guide strand
STUDY_CONDITIONS: shRNA
Listed below: sensor-assay potency score (higher = more potent) values for each entry.
Please respond with just the number, no unit label.

Reference set, count: 4
Qu. Determine its reported sensor-assay potency score (higher = more potent): TTCTTCGTAGATGTTCATGGGG
Ans. 0.19

Qu. Determine its reported sensor-assay potency score (higher = more potent): TAGGTCATTGTAGAGGAACAGG
Ans. -1.31

Qu. Determine its reported sensor-assay potency score (higher = more potent): TACAAGAACATAATCTTCTGTT
Ans. 0.614

Qu. Determine its reported sensor-assay potency score (higher = more potent): TCTTCGTAGATGTTCATGGGGT
Ans. -0.405

Next:
Qu. Determine its reported sensor-assay potency score (higher = more potent): TAACAGGCAGAGACACACTAAC
Ans. -1.38

Qu. Determine its reported sensor-assay potency score (higher = more potent): TTCTTTGCCCTCTTGTGCCATT
Ans. -1.23

Qu. Determine its reported sensor-assay potency score (higher = more potent): ATCGGTACTGCAGCTCTCCAGT
Ans. -0.753

---

Listed below: sensor-assay potency score (higher = more potent) values for each entry.
SYSTEM_UNDER_TEST: SGK1
PROTOCOL: pooled miR-30 sensor sort-seq; sequence = guide strand
STUDY_CONDITIONS: shRNA
Please respond with just the number, no unit label.

Qu. Determine its reported sensor-assay potency score (higher = more potent): TTTAGCATGAGGATTGGACGAC
Ans. -0.303

Qu. Determine its reported sensor-assay potency score (higher = more potent): TTGTCGTACATTTCAGCTGTGT
Ans. -0.298

---

SYSTEM_UNDER_TEST: ADORA2B
PROTOCOL: pooled miR-30 sensor sort-seq; sequence = guide strand
STUDY_CONDITIONS: shRNA
Listed below: sensor-assay potency score (higher = more potent) values for each entry.
Please respond with just the number, no unit label.

Reference set, count: 5
Qu. Tell me its sensor-assay potency score (higher = more potent) on ADORA2B: TAAATATATTTGTCAATCCTTG
Ans. -0.669

Qu. Tell me its sensor-assay potency score (higher = more potent) on ADORA2B: TTAAAAACAAAAGAGTCTGTTA
Ans. -0.121

Qu. Tell me its sensor-assay potency score (higher = more potent) on ADORA2B: TCCCACTCTTGACATCTGCTTG
Ans. -0.99

Qu. Tell me its sensor-assay potency score (higher = more potent) on ADORA2B: TTTGTCAATCCTTGGAGCCTAC
Ans. -0.74

Qu. Tell me its sensor-assay potency score (higher = more potent) on ADORA2B: TTCACAATGAAAACCAGCCGTG
Ans. -0.942

Next:
Qu. Tell me its sensor-assay potency score (higher = more potent) on ADORA2B: TAATCCACACAGTAAAAGCAGC
Ans. -1.13

Qu. Tell me its sensor-assay potency score (higher = more potent) on ADORA2B: TAGCGGAAGTCTCGGTTCCGGT
Ans. -1.62

Qu. Tell me its sensor-assay potency score (higher = more potent) on ADORA2B: TTGACAACTGAATTGGCATGTG
Ans. -0.143

Qu. Tell me its sensor-assay potency score (higher = more potent) on ADORA2B: AAGTGTAGCGGAAGTCTCGGTT
Ans. -0.00274

Qu. Tell me its sensor-assay potency score (higher = more potent) on ADORA2B: TTTCACAATGAAAACCAGCCGT
Ans. -0.477

Qu. Tell me its sensor-assay potency score (higher = more potent) on ADORA2B: TTAATGTAGATCACCAGCATTA
Ans. -1.17

Qu. Tell me its sensor-assay potency score (higher = more potent) on ADORA2B: TTTCCTTGTGAGGTGTAGCTAT
Ans. -0.397

---

SYSTEM_UNDER_TEST: PLEKHN1
PROTOCOL: pooled miR-30 sensor sort-seq; sequence = guide strand
STUDY_CONDITIONS: shRNA
QUANTITY_MEASURED: sensor-assay potency score (higher = more potent)
Please respond with just the number, no unit label.

Reference set, count: 4
Qu. Determine its reported sensor-assay potency score (higher = more potent): TAGCAGTCGCTGACATCCTGGC
Ans. -0.66

Qu. Determine its reported sensor-assay potency score (higher = more potent): TCCAGGTCCAGGATGTCCGTGC
Ans. -1.12

Qu. Determine its reported sensor-assay potency score (higher = more potent): TTTCTGGAGAAGGAGGCCCGGA
Ans. -1.45

Qu. Determine its reported sensor-assay potency score (higher = more potent): TCGCTGGTTCTCCAGGTCCAGG
Ans. -2

Next:
Qu. Determine its reported sensor-assay potency score (higher = more potent): TGACCGTAGTCCTCGTAGCTGG
Ans. -1.04

Qu. Determine its reported sensor-assay potency score (higher = more potent): TGAAATGTGAGTCCTTCCGAGC
Ans. -1.13

Qu. Determine its reported sensor-assay potency score (higher = more potent): TAGCTGGCGCACACCACGCGGA
Ans. -1.23

Qu. Determine its reported sensor-assay potency score (higher = more potent): TAGTGGAAGAGCTTGTTGGCGG
Ans. -0.587

Qu. Determine its reported sensor-assay potency score (higher = more potent): TAGCTCCAGGTAGCAGTCGCTG
Ans. -1.67

---

SYSTEM_UNDER_TEST: SMCP
PROTOCOL: pooled miR-30 sensor sort-seq; sequence = guide strand
STUDY_CONDITIONS: shRNA
QUANTITY_MEASURED: sensor-assay potency score (higher = more potent)
Please respond with just the number, no unit label.

Reference set, count: 2
Qu. Determine its reported sensor-assay potency score (higher = more potent): TTGTCCTGAGTTTGCGGTGAGT
Ans. -1.27

Qu. Determine its reported sensor-assay potency score (higher = more potent): TCTAAACACAGGTCTAGCCTGA
Ans. 0.141

Next:
Qu. Determine its reported sensor-assay potency score (higher = more potent): TGACTGGCAGCACTGGTTCTGC
Ans. -1.04

Qu. Determine its reported sensor-assay potency score (higher = more potent): TTGGTGGGCAGCATTGACTGCC
Ans. -0.359

Qu. Determine its reported sensor-assay potency score (higher = more potent): TTTGCTGGGCAGCATTTACTGT
Ans. -0.976

Qu. Determine its reported sensor-assay potency score (higher = more potent): TTTGCGGTGAGTTGGGCTCAGA
Ans. -1.18

Qu. Determine its reported sensor-assay potency score (higher = more potent): TTTGGTGGGCAGCATTGACTGC
Ans. -0.712

Qu. Determine its reported sensor-assay potency score (higher = more potent): TTGATTGCCTTTTGACTGGCAG
Ans. 0.000564

Qu. Determine its reported sensor-assay potency score (higher = more potent): TTGTGTTTTGGTGGGCAGCATT
Ans. -1.54

---

SYSTEM_UNDER_TEST: ZNF32
PROTOCOL: pooled miR-30 sensor sort-seq; sequence = guide strand
STUDY_CONDITIONS: shRNA
QUANTITY_MEASURED: sensor-assay potency score (higher = more potent)
Please respond with just the number, no unit label.

Reference set, count: 5
Qu. Determine its reported sensor-assay potency score (higher = more potent): TATCCCAGCTTGAGGATCCTGT
Ans. -0.615

Qu. Determine its reported sensor-assay potency score (higher = more potent): TCTTCCTGTAGTGTCTTCGAAT
Ans. -1.44

Qu. Determine its reported sensor-assay potency score (higher = more potent): TGTAGTGTCTTCGAATCTGGGG
Ans. 0.479

Qu. Determine its reported sensor-assay potency score (higher = more potent): TAGTGTCTTCGAATCTGGGGAT
Ans. -0.0716

Qu. Determine its reported sensor-assay potency score (higher = more potent): ATATCTTCCATGACAGTCCAGC
Ans. -0.761

Next:
Qu. Determine its reported sensor-assay potency score (higher = more potent): TTAGACTACCTTTTTGCCGGAA
Ans. -0.355

Qu. Determine its reported sensor-assay potency score (higher = more potent): TGAATCTTCCTGTAGTGTCTTC
Ans. -0.275
